system: SKBR3 cells express WT PI3Ka; assay: In vitro cell proliferation, SKBR3 cells (CellTiter-Glo); format: cell-based; settings: Homo sapiens, SK-BR-3, 72 h, inhibition of proliferation
pEC50: −log10 of the molar value.
propertyMeasured: pEC50

Please review the entries below; each comes with its answer.
• Cc1cc([C@@H](C)Nc2cnsc2C(=O)O)c2cc(N3CCN(CC(F)(F)F)CC3)n(C)c(=O)c2c1 = < 4.82
• COc1ncc(-c2cc3c([C@@H](C)Nc4ccccc4C(=O)O)cc(C)cc3c(=O)n2C)cc1F = < 4.82

The following compounds each have a reported value; give each one's pEC50.
1. C[C@@H](Nc1ccccc1C(=O)O)c1cc(F)cc2c(=O)n(C)c(-c3cc(F)c4nn(C(F)F)cc4c3)cc12
2. Cc1cc([C@@H](C)Nc2ccccc2C(=O)O)c2cc(-c3ccc(C(F)(F)F)cn3)n(C)c(=O)c2c1

< 4.82
< 4.82

The following compounds each have a reported value; give each one's pEC50.
1. Cc1cnc(-c2cc3c([C@@H](C)Nc4ccccc4C(=O)O)cc(F)cc3c(=O)n2C)s1
2. C[C@@H](Nc1ccccc1C(=O)O)c1cc(F)cc2c(=O)n(C)c(C34CC(C(F)(F)C(F)(F)F)(C3)C4)cc12
3. Cc1cc(C(C)Nc2ccccc2C(=O)O)c2cc(N3CCN4C(=O)OC[C@H]4C3)n(C)c(=O)c2c1 (single isomer, unassigned)
4. Cc1cc(C(C)Nc2ccccc2C(=O)O)c2cc(N3Cc4cccnc4C3)n(C)c(=O)c2c1 (single isomer, unassigned) [Example 18]
5. Cc1cc([C@@H](C)Nc2ccccc2C(=O)O)c2cc(-c3cnc4occc4c3)n(C)c(=O)c2c1
6. Cc1cc(C(C)Nc2ccc(Cl)nc2C(=O)O)c2cc(N3Cc4ccc(F)cc4C3)n(C)c(=O)c2c1 (centres unmarked)
7. CCON1CC2CCC(C1)N2c1cc2c([C@@H](C)Nc3ccccc3C(=O)O)cc(F)cc2c(=O)n1C

1: < 4.82; 2: 4.82 to 5.70; 3: < 4.82; 4: 4.82 to 5.70; 5: < 4.82; 6: < 4.82; 7: 4.82 to 5.70

The following compounds each have a reported value; give each one's pEC50.
1. Cc1cc([C@@H](C)Nc2ccccc2C(=O)O)c2cc(-c3ccc(OCC4CC4)nc3)n(C)c(=O)c2c1
2. Cc1cc([C@@H](C)Nc2ccccc2C(=O)O)c2cc(-c3cnc(C(C)(F)F)nc3)n(C)c(=O)c2c1
3. Cc1cc(C(C)Nc2ccccc2C(=O)O)c2cc(N3Cc4cccc(C(F)(F)F)c4C3)n(C)c(=O)c2c1 (single isomer, unassigned)

< 4.82
< 4.82
< 4.82

###

test system: T47D cells expressing mutant PI3Ka (H1047R); test: In vitro cell proliferation, T47D cells (CellTiter-Glo); type: cell-based; settings: inhibition of proliferation, 72 hours, read-out: Avg T-47D EC50
propertyMeasured: EC50

• Cc1cc(C(C)Nc2ccccc2C(=O)O)c2cc(N3CC(C)(O)C3)n(C)c(=O)c2c1 (single isomer, unassigned) [Example 182] = 2000 to 15000 nM
• Cc1cc(C(C)Nc2ccccc2C(=O)O)c2cc(-c3ccc(C)nc3)n(C)c(=O)c2c1 (single isomer, unassigned) [Example 20] = 2000 to 15000 nM
• C[C@@H](Nc1cccc(F)c1C(=O)O)c1cc(F)cc2c(=O)n(C)c(C3C[C@@H]3C(F)F)cc12 (single isomer, unassigned) [Example 476] = 500 to 2000 nM

The following compounds each have a reported value; give each one's EC50.
1. Cc1cc(C(CF)Nc2ccccc2C(=O)O)c2cc(N3CCN(CC(F)(F)F)CC3)n(C)c(=O)c2c1 (single isomer, unassigned) [Example 38]
2. Cc1cc(C(C)Nc2ccccc2C(=O)O)c2c(F)c(C3=CCN(CC(F)(F)F)CC3)n(C)c(=O)c2c1 (single isomer, unassigned) [Example 359]
3. Cc1cc([C@@H](C)Nc2ccccc2C(=O)O)c2cc(N3CC4CC3CN4CC(F)(F)F)n(C)c(=O)c2c1 (single isomer, unassigned) [Example 224]
4. COC1(C)CN(c2cc3c(C(C)Nc4ccccc4C(=O)O)cc(C)cc3c(=O)n2C)C1 (single isomer, unassigned) [Example 183]
5. C[C@@H](Nc1ccccc1C(=O)O)c1cc(F)cc2c(=O)n(C)c(-c3cnc(-c4ccc(F)cc4)nc3)cc12 [Example 324]
6. Cc1cc(C(C)Nc2ccccc2C(=O)O)c2cc(N3CCC(c4ccccc4)C3)n(C)c(=O)c2c1 (single isomer, unassigned) [Example 104]
7. Cc1cc(C(CF)Nc2ccccc2C(=O)O)c2cc(N3CCN(CC(F)(F)F)CC3)n(C)c(=O)c2c1 (single isomer, unassigned) [Example 37]
8. Cc1cc([C@@H](C)Nc2ccccc2C(=O)O)c2cc(N3CCN(CC(F)F)CC3)n(C)c(=O)c2c1 [Example 162]

1. 1 to 500 nM
2. 1 to 500 nM
3. 1 to 500 nM
4. > 15000 nM
5. 1 to 500 nM
6. 2000 to 15000 nM
7. 2000 to 15000 nM
8. 1 to 500 nM

EC50 lookup needed for C[C@@H](Nc1ccccc1C(=O)O)c1cc(F)cc2c(=O)n(C)c(C3CC3(F)F)cc12 (single isomer, unassigned) [Example 482] , thanks. 1 to 500 nM

###

Assign EC50 to each entry below.
tested on: T47D cells expressing mutant PI3Ka (H1047R); experiment: In vitro cell proliferation, T47D cells (CellTiter-Glo); format: cell-based; settings: inhibition of proliferation, 72 hours, read-out: Avg T-47D EC50

Please review the entries below; each comes with its answer.
* CC(Nc1ccccc1C(=O)O)c1cc(F)cc2c(=O)n(C)c(N3CCN(CC(F)(F)F)CC3)c(F)c12 (single isomer, unassigned) [Example 572] | 1 to 500 nM
* Cc1cc(C(C)Nc2ccccc2C(=O)O)c2cc(C3=CCC(C)(C)CC3)n(C)c(=O)c2c1 (single isomer, unassigned) [Example 6] | 1 to 500 nM
* Cc1cc(C(C)Nc2ccccc2C(=O)O)c2cc(-c3ccc(OC4CC(F)C4)nc3)n(C)c(=O)c2c1 (stereo not drawn) | 1 to 500 nM

The following compounds each have a reported value; give each one's EC50.
1. Cc1cc(C(C)Nc2ccccc2C(=O)O)c2cc(N3CCN(C(C)C(F)(F)F)CC3)n(C)c(=O)c2c1 (mixture of isomers)
2. Cc1cc(C(C)Nc2ccccc2C(=O)O)c2cc(N3Cc4cccc(C(F)(F)F)c4C3)n(C)c(=O)c2c1 (single isomer, unassigned) [Example 93]
3. C[C@@H](Nc1ccccc1C(=O)O)c1cc(F)cc2c(=O)n(C)c(-c3cnc(-c4ncc(Cl)cc4F)c(F)c3)cc12

1 to 500 nM
2000 to 15000 nM
1 to 500 nM

###

tested on: phosphorylation of AKT (pAKT) in T47D cells expressing mutant PI3Ka (H1047R); test: In vitro cell pAKT (Ser473) HTRF, T47D cells; type: cell-based; details: cellular pAKT, T47D cells, mutant PI3Ka (H1047R), 6 hours; read-out: Avg T-47D IC50
propertyMeasured: IC50

* C[C@@H](Nc1cccc(F)c1C(=O)O)c1cc(F)cc2c(=O)n(C)c(C3C[C@@H]3C(F)F)cc12 (single isomer, unassigned) | 0.001 to 0.5 µM

The following compounds each have a reported value; give each one's IC50.
1. Cc1cc(C(C)Nc2ccccc2C(=O)O)c2cc(N3CCC4(CCN(CC(F)(F)F)CC4)CC3)n(C)c(=O)c2c1 (stereo not shown) [Example 91]
2. CC(=O)N1CCC2(CC1)CCN(c1cc3c(C(C)Nc4ccccc4C(=O)O)cc(C)cc3c(=O)n1C)CC2 (single isomer, unassigned) [Example 135]
3. Cc1cc([C@@H](C)Nc2ccccc2C(=O)O)c2cc(N3CCN(c4cccc(C#N)c4)CC3)n(C)c(=O)c2c1
4. Cc1cc(C(C)Nc2ccccc2C(=O)O)c2cc(C#Cc3cccc(Cl)c3)n(C)c(=O)c2c1 (single isomer, unassigned) [Example 143]

["0.001 to 0.5 µM", "> 15 µM", "0.001 to 0.5 µM", "> 15 µM"]

The following compounds each have a reported value; give each one's IC50.
1. CCOc1ccc(-c2cc3c(C(C)Nc4ccccc4C(=O)O)cc(C)cc3c(=O)n2C)cn1 (single isomer, unassigned) [Example 133]
2. Cc1cc([C@@H](C)Nc2cnc(Cl)nc2C(=O)O)c2cc(N3CCN(CC(F)(F)F)CC3)n(C)c(=O)c2c1
3. Cc1cc([C@@H](C)Nc2ccccc2C(=O)O)c2cc(C3C[C@H]3C3CC3)n(C)c(=O)c2c1 (single isomer, unassigned)
4. Cc1cc([C@@H](C)Nc2ccccc2C(=O)O)c2cc(-c3cnc(CF)c(F)c3)n(C)c(=O)c2c1
5. Cc1cc(C(C)Nc2ccccc2C(=O)O)c2cc(N3CC4CCC(C4)C3)n(C)c(=O)c2c1 (single isomer, unassigned) [Example 11]
6. COC1(C)CN(c2cc3c(C(C)Nc4ccccc4C(=O)O)cc(C)cc3c(=O)n2C)C1 (single isomer, unassigned) [Example 183]

1: > 15 µM; 2: 2 to 15 µM; 3: 0.001 to 0.5 µM; 4: 0.001 to 0.5 µM; 5: 0.001 to 0.5 µM; 6: > 15 µM

The following compounds each have a reported value; give each one's IC50.
1. Cc1cc([C@@H](C)Nc2ccccc2C(=O)O)c2cc(N3CCN(c4ccc(CF)nc4)CC3)n(C)c(=O)c2c1
2. Cc1cc(C(C)Nc2ccccc2C(=O)O)c2cc(N3CCC4(CCN(CC(F)(F)F)C4)CC3)n(C)c(=O)c2c1 (single isomer, unassigned) [Example 97]
3. CC(Nc1cccc(F)c1C(=O)O)c1cc(F)cc2c(=O)n(C)c(-c3cnc(OC4CC(F)C4)c(F)c3)cc12 (stereo not shown)
4. Cc1ccc(-c2ncc(-c3cc4c(C(C)Nc5ccccc5C(=O)O)cc(F)cc4c(=O)n3C)cc2F)cn1 (stereo not shown)
5. Cc1cc(-c2ncc(-c3cc4c([C@@H](C)Nc5ccccc5C(=O)O)cc(F)cc4c(=O)n3C)cc2F)on1

["0.001 to 0.5 µM", "2 to 15 µM", "0.001 to 0.5 µM", "0.001 to 0.5 µM", "0.001 to 0.5 µM"]

The following compounds each have a reported value; give each one's IC50.
1. C[C@@H](Nc1cccc(F)c1C(=O)O)c1cc(F)cc2c(=O)n(C)c(-c3cnc(C(F)(F)F)nc3)cc12
2. Cc1cc(C(C)Nc2ccccc2C(=O)O)c2cc(N3CC4(CC(C(F)(F)F)C4)C3)n(C)c(=O)c2c1 (single isomer, unassigned) [Example 82]

1: 2 to 15 µM; 2: 0.001 to 0.5 µM

The following compounds each have a reported value; give each one's IC50.
1. Cc1cc(C(C)Nc2ccccc2C(=O)O)c2cc(C#Cc3cccc(Cl)c3)n(C)c(=O)c2c1 (single isomer, unassigned) [Example 144]
2. Cc1cc(C(C)Nc2ccccc2C(=O)O)c2cc(N3CC4(C3)CC(F)(F)C4)n(C)c(=O)c2c1 (single isomer, unassigned) [Example 80]
3. CC(Nc1ccccc1C(=O)O)c1cc(F)cc2c(=O)n(C)c(N3CCN(CC(F)(F)F)CC3)c(F)c12 (single isomer, unassigned) [Example 573]
4. COc1cccc(C#Cc2cc3c(C(C)Nc4ccccc4C(=O)O)cc(C)cc3c(=O)n2C)c1 (single isomer, unassigned) [Example 126]
5. Cc1cc([C@@H](C)Nc2cccc(F)c2C(=O)O)c2cc(N3CCn4c(cnc4C)C3)n(C)c(=O)c2c1
6. Cc1cc([C@@H](C)Nc2ccccc2C(=O)O)c2cc(-c3ccc(O[C@H]4C[C@@H](F)C4)nc3)n(C)c(=O)c2c1
7. Cc1cc(C(C)Nc2ccccc2C(=O)O)c2cc(N3CC4CN(CC(F)(F)F)CC4C3)n(C)c(=O)c2c1 (mixture of isomers)

1. 0.5 to 2 µM
2. > 15 µM
3. 2 to 15 µM
4. 0.001 to 0.5 µM
5. > 15 µM
6. 0.001 to 0.5 µM
7. 0.5 to 2 µM
